B1: library; numbered along this chain (parent)
chain: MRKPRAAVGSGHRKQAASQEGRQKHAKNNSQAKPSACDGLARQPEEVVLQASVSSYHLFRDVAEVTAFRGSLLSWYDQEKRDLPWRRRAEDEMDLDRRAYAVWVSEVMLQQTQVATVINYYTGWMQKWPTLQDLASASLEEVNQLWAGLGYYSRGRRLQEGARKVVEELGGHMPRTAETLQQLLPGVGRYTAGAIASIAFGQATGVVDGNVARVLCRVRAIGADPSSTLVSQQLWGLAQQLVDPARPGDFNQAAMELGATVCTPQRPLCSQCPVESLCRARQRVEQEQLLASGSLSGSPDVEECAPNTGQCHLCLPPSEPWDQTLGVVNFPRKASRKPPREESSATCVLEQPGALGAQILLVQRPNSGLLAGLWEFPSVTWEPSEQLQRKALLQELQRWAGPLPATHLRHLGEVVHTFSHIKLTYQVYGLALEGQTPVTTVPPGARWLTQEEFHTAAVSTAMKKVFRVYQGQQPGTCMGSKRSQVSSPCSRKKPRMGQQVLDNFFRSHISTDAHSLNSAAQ

Variants of: B1
Assay: 8OG:A repair function score (normalized; synonymous = 0, nonsense = -1) (normalized log-likelihood score); higher = more repair activity (WT-like);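 further: cells sorted at 72 h after reporter transfection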
Details: with 8OG:A DNA repair reporter (GFP) in HEK-293 MUTYH KO cells
# 8OG:A repair function score per entry
Just the number, please, no unit after it.

Illustrative cases are given below, each with its answer.
variant_code: T179R
measured_quantity: 8OG:A repair function score
assay_value: 0.0462

variant_code: A291H
measured_quantity: 8OG:A repair function score
assay_value: -0.0755

variant_code: W124K
measured_quantity: 8OG:A repair function score
assay_value: -0.931

variant_code: Q498M
measured_quantity: 8OG:A repair function score
assay_value: -0.0277

variant_code: G368Y
measured_quantity: 8OG:A repair function score
assay_value: -0.663

Form field 8OG:A repair function score, entry "V362L" : -0.0488

Form field 8OG:A repair function score, entry "L237E" : -0.684

Form field 8OG:A repair function score, entry "A457H" : -0.398

Form field 8OG:A repair function score, entry "V485S" : 0.0216

Form field 8OG:A repair function score, entry "K493Q" : -0.107

Form field 8OG:A repair function score, entry "P443D" : -0.00467

Form field 8OG:A repair function score, entry "Y190L" : -0.851

Form field 8OG:A repair function score, entry "S136L" : -0.0288

Every entry's value here was drawn from the supplement of paper PMC11908140.
